Just for reference, patent US10647680B2 is where these values come from.

# Tested on: MOLM-13 (FLT3 ITD+/− mutant type)
# protocol text: In vitro growth inhibition (GI50), MOLM-13
# Type: cell-based, human
# experimental context: Homo sapiens, MOLM-13; Cell lines of leukemia; read-out: GI 50 MOLM-13 FLT3 (ITD+/−)
property: GI50

Solved cases (5 shown):
Cc1cc(F)cc2ncn(-c3ccc(NC(=O)Nc4cc(C(C)(C)C)n[nH]4)cc3)c12 : 1 to 10 nM
CC(C)(C)c1cc(NC(=O)Nc2ccc(-n3cnc4ccccc43)cc2)n(CCO)n1 : 1 to 10 nM
Cc1cc(F)cc2ncn(-c3ccc(NC(=O)Nc4cc(C(C)(C)C)on4)cc3)c12 : 1 to 10 nM
COc1ncnc2ncn(-c3ccc(NC(=O)Nc4cc(C(C)(C)C)on4)cc3)c12 : 10 to 100 nM
CCOCCOc1ccc2c(c1)ncn2-c1ccc(NC(=O)Nc2cc(C(C)(C)C)n[nH]2)cc1 : 0.1 to 1 nM

Query :: Consider the molecule `CC(C)(C)c1cc(NC(=O)Nc2cnc(-n3cnc4ccccc43)nc2)no1` and give its measured GI50.
Result :: 10 to 100 nM

Query :: Which GI50 reading was recorded for the molecule `CC1(COc2ccc3c(c2)ncn3-c2ccc(NC(=O)Nc3cc(C(C)(C)C)on3)cc2)COC1` ?
Result :: 0.1 to 1 nM

Query :: Reported GI50, molecule `O=C(Nc1ccc(-n2cnc3ccccc32)cc1)Nc1cc(C(F)(F)F)n[nH]1` : ____
Result :: 0.1 to 1 nM
